- Tested on: 885724-159-R-J1-PDC complex spheroid viability
- PROTOCOL DESCRIPTION: Anticancer human tumor 885724-159-R-J1-PDC patient-derived pancreatic adenocarcinoma cell line growth inhibition [POLQ]
- SETUP CONDITIONS: second compound 10 µM; first compound 0.316 µM; hits give low values
TEST READOUT: viability, T/C (%)
Just the number please, in %, no unit attached.

viability, T/C recorded for this compound, COc1cc2cc(C(=O)CCC(=O)O)sc2cc1OC + Cc1cccc(N(C)C(=O)C2C(O)CCN2c2nc(C)cc(C(F)(F)F)c2C#N)c1 , is 99.2

// viability, T/C value for C#Cc1c(F)ccc2cc(O)cc(-c3ncc4c(N5CC6CCC(C5)N6)nc(OCC56CCCN5CC(F)C6)nc4c3F)c12 (stereo unspecified) + COC1C(OC(N)=O)C(O)C(Oc2ccc3c(O)c(NC(=O)c4ccc(O)c(CC=C(C)C)c4)c(=O)oc3c2C)OC1(C)C : 95.2

viability, T/C recorded for this compound, O=c1[nH]cc(F)c(=O)[nH]1 + Nc1ccc(C#CCN(C(=O)Cc2ncc(C(F)(F)F)cc2C(F)(F)F)c2ccc(F)cc2)nn1 , is 94

viability, T/C reported for this compound Nc1ccn(C2OC(CO)C(O)C2(F)F)c(=O)n1 (stereo unspecified) + Nc1ccc(C#CCN(C(=O)Cc2ncc(C(F)(F)F)cc2C(F)(F)F)c2ccc(F)cc2)nn1 : 69.3

Value of measured viability, T/C for the entry C#Cc1c(F)ccc2cc(O)cc(-c3ncc4c(N5CC6CCC(C5)N6)nc(OCC56CCCN5CC(F)C6)nc4c3F)c12 (stereo unspecified) + Cc1cccc(N(C)C(=O)C2C(O)CCN2c2nc(C)cc(C(F)(F)F)c2C#N)c1 : 80.3

Value of viability, T/C reported for the compound CCCS(=O)(=O)Nc1ccc(F)c(C(=O)c2c[nH]c3ncc(-c4ccc(Cl)cc4)cc23)c1F + Cc1cccc(N(C)C(=O)C2C(O)CCN2c2nc(C)cc(C(F)(F)F)c2C#N)c1 is 143

###

- Test system: 885724-159-R-J1-PDC complex spheroid viability
- PROTOCOL DESCRIPTION: Anticancer human tumor 885724-159-R-J1-PDC cell line growth inhibition [POLQ];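 further: spheroids exposed to compounds for 7 days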
- SETUP CONDITIONS: second compound 0.316 µM; first compound 0.00316 µM; hits give low values
// classify: if (viability, T/C < 90%) Fulfilled else Not fulfilled

Exam item: Lab note: viability, T/C threshold 90%. Does this molecule come in strictly under it? C=CCn1c(=O)c2cnc(Nc3ccc(N4CCN(C)CC4)cc3)nc2n1-c1cccc(C(C)(C)O)n1 + Nc1ccc(C#CCN(C(=O)Cc2ncc(C(F)(F)F)cc2C(F)(F)F)c2ccc(F)cc2)nn1
Marked response: Not fulfilled

Exam item: Find out if reported viability, T/C for Cn1ncnc1[C@H]1c2n[nH]c(=O)c3cc(F)cc(c23)N[C@@H]1c1ccc(F)cc1 + Cc1cccc(N(C)C(=O)C2C(O)CCN2c2nc(C)cc(C(F)(F)F)c2C#N)c1 is less than 90%
Marked response: Not fulfilled

Exam item: Hello, I'm reviewing records and need to know if viability, T/C of COc1cccc(OCCCN)c1-c1cc(Nc2cnc(C#N)cn2)n[nH]1 + Cc1cccc(N(C)C(=O)C2C(O)CCN2c2nc(C)cc(C(F)(F)F)c2C#N)c1 is below 90%. Could you check?
Marked response: Fulfilled

Exam item: Regarding CC[C@@]1(O)C(=O)OCc2c1cc1n(c2=O)Cc2cc3c(CN(C)C)c(O)ccc3nc2-1 + Nc1ccc(C#CCN(C(=O)Cc2ncc(C(F)(F)F)cc2C(F)(F)F)c2ccc(F)cc2)nn1 , kindly confirm whether its viability, T/C is beneath 90%.
Marked response: Not fulfilled

Exam item: Below 90% on viability, T/C? Entry CCc1c2c(nc3ccc(O)cc13)-c1cc3c(c(=O)n1C2)COC(=O)[C@]3(O)CC + COC1C(OC(N)=O)C(O)C(Oc2ccc3c(O)c(NC(=O)c4ccc(O)c(CC=C(C)C)c4)c(=O)oc3c2C)OC1(C)C
Marked response: Fulfilled

###

Record form. Attribute: viability, T/C. Fill in for each entry.
- System: 885724-159-R-J1-PDC complex spheroid viability
- PROTOCOL DESCRIPTION: Anticancer human tumor 885724-159-R-J1-PDC cell line growth inhibition [POLQ];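 further: spheroids exposed to compounds for 7 days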
- SETUP CONDITIONS: second compound 1 µM; first compound 3.16 µM; hits give low values
Write the value in % as a bare number.

viability, T/C in this record for CCc1cc2c(N3CCc4c(cc(Cn5ccnc5)cc4-c4cn(C)nc4C(F)(F)F)C3=O)cc(C)nc2c(OC)n1 + Cc1cccc(N(C)C(=O)C2C(O)CCN2c2nc(C)cc(C(F)(F)F)c2C#N)c1 : 76.1

viability, T/C in this record for COc1cc(C2c3cc4c(cc3C(OC3OC5COC(C)OC5C(O)C3O)C3COC(=O)C23)OCO4)cc(OC)c1O (stereo not given) + Nc1ccc(C#CCN(C(=O)Cc2ncc(C(F)(F)F)cc2C(F)(F)F)c2ccc(F)cc2)nn1 : 53.9

So, O=C(c1cc(Cc2n[nH]c(=O)c3ccccc23)ccc1F)N1CCN(C(=O)C2CC2)CC1 + Cc1cccc(N(C)C(=O)C2C(O)CCN2c2nc(C)cc(C(F)(F)F)c2C#N)c1 ? Its viability, T/C was 94.6

viability, T/C recorded for this compound, C#Cc1c(F)ccc2cc(O)cc(-c3ncc4c(N5CC6CCC(C5)N6)nc(OCC56CCCN5CC(F)C6)nc4c3F)c12 (stereo not given) + Nc1ccc(C#CCN(C(=O)Cc2ncc(C(F)(F)F)cc2C(F)(F)F)c2ccc(F)cc2)nn1 , is 49.6

Short answer for CC1COCCN1c1cc(-c2ccnn2C)c2ccnc(-c3ccn[nH]3)c2n1 (stereo not given) + Cc1cccc(N(C)C(=O)C2C(O)CCN2c2nc(C)cc(C(F)(F)F)c2C#N)c1 : viability, T/C was 41.9

Per the records, this compound ( COc1cccc2c1C(=O)c1c(O)c3c(c(O)c1C2=O)CC(O)(C(=O)CO)CC3OC1CC(N)C(O)C(C)O1 (stereo not given) + Cc1cccc(N(C)C(=O)C2C(O)CCN2c2nc(C)cc(C(F)(F)F)c2C#N)c1 ) has viability, T/C equal to 5.49

Form field viability, T/C, entry COc1cc2cc(C(=O)CCC(=O)O)sc2cc1OC + Nc1ccc(C#CCN(C(=O)Cc2ncc(C(F)(F)F)cc2C(F)(F)F)c2ccc(F)cc2)nn1 : 103

Record O=C(Nc1ccc(O)c(NS(=O)(=O)c2ccc(F)cc2)c1)c1ccc(-c2ccccc2)cc1 + COC1C(OC(N)=O)C(O)C(Oc2ccc3c(O)c(NC(=O)c4ccc(O)c(CC=C(C)C)c4)c(=O)oc3c2C)OC1(C)C , field viability, T/C: 102

Lookup result for CC1COCCN1c1cc(C2(O)CC3CCC(C2)O3)c2cnn(-c3ccn[nH]3)c2n1 (stereo not given) + Cc1cccc(N(C)C(=O)C2C(O)CCN2c2nc(C)cc(C(F)(F)F)c2C#N)c1 ; measured viability, T/C: 33.2

Kindly note the recorded viability, T/C for C#Cc1c(F)ccc2cc(O)cc(-c3ncc4c(N5CC6CCC(C5)N6)nc(OCC56CCCN5CC(F)C6)nc4c3F)c12 (stereo not given) + COC1C(OC(N)=O)C(O)C(Oc2ccc3c(O)c(NC(=O)c4ccc(O)c(CC=C(C)C)c4)c(=O)oc3c2C)OC1(C)C , which is 45.2

###

- Tested on: 885724-159-R-J1-PDC complex spheroid viability
- PROTOCOL DESCRIPTION: Anticancer human tumor 885724-159-R-J1-PDC cell line growth inhibition [POLQ];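 further: spheroids exposed to compounds for 7 days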
- SETUP CONDITIONS: second compound 0.1 µM; first compound 10 µM; hits give low values
Param label: returns True when viability, T/C < 70%, returns False otherwise, including exact equality.

Exam item: State whether 70% exceeds viability, T/C recorded for COc1ccc([C@@H](O)c2cc(-c3ncnc4cc(N5CCOCC5)ccc34)c(F)cc2Cl)nn1 + COC1C(OC(N)=O)C(O)C(Oc2ccc3c(O)c(NC(=O)c4ccc(O)c(CC=C(C)C)c4)c(=O)oc3c2C)OC1(C)C .
Marked response: True

Exam item: Consider the compound Nc1ccn(C2OC(CO)C(O)C2(F)F)c(=O)n1 (stereo not given) + COC1C(OC(N)=O)C(O)C(Oc2ccc3c(O)c(NC(=O)c4ccc(O)c(CC=C(C)C)c4)c(=O)oc3c2C)OC1(C)C . Is its viability, T/C strictly less than 70%?
Marked response: True

Exam item: Is viability, T/C of O=C(c1cc(Cc2n[nH]c(=O)c3ccccc23)ccc1F)N1CCN(C(=O)C2CC2)CC1 + Cc1cccc(N(C)C(=O)C2C(O)CCN2c2nc(C)cc(C(F)(F)F)c2C#N)c1 strictly below 70%?
Marked response: False

Exam item: Lab note: viability, T/C threshold 70%. Does this compound come in strictly under it? COc1cc2cc(C(=O)CCC(=O)O)sc2cc1OC + Nc1ccc(C#CCN(C(=O)Cc2ncc(C(F)(F)F)cc2C(F)(F)F)c2ccc(F)cc2)nn1
Marked response: False
